- Target Under Test: human glucagon receptor (hGCGR) (human, UniProt P47871 26-477)
- Sequence (P47871 26-477): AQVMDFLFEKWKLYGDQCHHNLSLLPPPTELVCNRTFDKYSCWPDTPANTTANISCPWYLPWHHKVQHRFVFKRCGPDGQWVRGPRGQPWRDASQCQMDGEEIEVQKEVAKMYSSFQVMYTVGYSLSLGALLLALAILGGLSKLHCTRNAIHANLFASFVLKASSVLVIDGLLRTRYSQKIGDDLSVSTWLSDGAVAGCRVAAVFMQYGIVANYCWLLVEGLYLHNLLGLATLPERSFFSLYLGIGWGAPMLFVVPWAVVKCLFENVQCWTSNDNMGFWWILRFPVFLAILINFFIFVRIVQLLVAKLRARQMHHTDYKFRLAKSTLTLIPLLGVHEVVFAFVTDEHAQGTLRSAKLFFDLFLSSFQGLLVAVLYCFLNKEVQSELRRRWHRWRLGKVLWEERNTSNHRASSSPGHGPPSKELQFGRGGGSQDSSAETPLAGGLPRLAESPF
- Protocol Text: cell-based or functional assay
Starred links: 1 amine or outer side, 2 acyl side, 3 side chain; linkers in the order of their positions; H or OH if unused. Non-standard residues stand in square brackets, D forms with d. Groups on a side chain read outwards from the residue. Primed or numbered codes have the meaning given here. No end group written: not given here. *: point of attachment. C20 diacid = O=C(O)CCCCCCCCCCCCCCCCCCC(=O)*; C18 diacid = O=C(O)CCCCCCCCCCCCCCCCC(=O)*; Dip = N[C@H](C(=O)O)C(c1ccccc1)c1ccccc1; Heptadecanoyl = CCCCCCCCCCCCCCCCC(=O)*; γGlu = O=C(O)[C@H](CCC(=O)[*:2])N[*:1]; Stearoyl = CCCCCCCCCCCCCCCCCC(=O)*; Palmitoyl = CCCCCCCCCCCCCCCC(=O)*; αMeF = C[C@](N)(Cc1ccccc1)C(=O)O; (PEG)2 = polyethylene glycol 2; PEG2′ = polyethylene glycol 2; AEEA = NCCOCCOCC(=O)O; Aib = CC(C)(N)C(=O)O
hGluc-R EC50 (pM) reference
Put your answer as a value accompanied by its unit after it.

Take a look at these entries with their results.
| Binder | Value Reported |
| --- | --- |
| H[Aib]QGS[αMeF]TSDVSKILDSK([PEG2′-PEG2′-γGlu-γGlu-Palmitoyl])AAQD[αMeF]VQ[Aib]IINT-NH2 [Peptide 125] | 6.68 pM |
| H[Aib]QGS[αMeF]TSDVSKILDSK([PEG2′-PEG2′-γGlu-Palmitoyl])AAQD[αMeF]VQ[Aib]IINT-NH2 [Peptide 128] | 4.7 pM |
| HSQGS[αMeF]TSDVSK[Dip]LDSK([(PEG)2-(PEG)2-γGlu-γGlu-Myristyl])AAQD[αMeF]VE[Aib]IINT-NH2 [Peptide 63] | 2.49 pM |

Ask | Record request: hGluc-R EC50 (pM) value, item HSQGS[αMeF]TSDVSK[αMeF]LDSK([(PEG)2-(PEG)2-γGlu-γGlu-Heptadecanoyl])AAQD[αMeF]VQ[Aib]IAN-NH2 [Peptide 88]
Reply | 6.47 pM

Ask | Record request: hGluc-R EC50 (pM) value, item HSQGS[αMeF]TSDVSK[Dip]LDSK([(PEG)2-γGlu-(PEG)2-γGlu-Stearoyl])AAQD[αMeF]VE[Aib]IINT-NH2 [Peptide 61]
Reply | 9.55 pM

Ask | Record request: hGluc-R EC50 (pM) value, item HSQGS[αMeF]TSDVSK[Dip]LDSK([(PEG)2-(PEG)2-γGlu-γGlu-Stearoyl])AAQD[αMeF]VQ[Dip]LEA-NH2 [Peptide 55]
Reply | 19.1 pM

Ask | Record request: hGluc-R EC50 (pM) value, item H[Aib]HGS[αMeF]TSDVSK[αMeF]LDSK([AEEA-AEEA-γGlu-C18 diacid])AAQDFVQ[Aib]IANT-NH2 [Peptide 11]
Reply | 118 pM

Ask | Record request: hGluc-R EC50 (pM) value, item H[Aib]QGTFTSDVSK[αMeF]LDSK([γGlu-γGlu-AEEA-AEEA-γGlu-γGlu-C20 diacid])RAQDFVRWLLE[Aib]G-OH [Peptide 139]
Reply | 984 pM

Ask | Record request: hGluc-R EC50 (pM) value, item H[Aib]QGS[αMeF]TSDVSKILDSK([PEG2′-PEG2′-γGlu-Stearoyl])AAQD[αMeF]VQ[Aib]IINT-NH2 [Peptide 127]
Reply | 12.6 pM
